Target: T1, Recombinant human CD4 (R&D Systems, Cat. 10327-CD) (human, UniProt P01730 26-390, limits assumed)
T1 construct: Bought protein; also called huCD4
Assay: BLI (Octet Red384), purified antibody on anti-mouse Fc sensors, human CD4 100/50/25 nM, global 1:1 fit;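 note: antibodies loaded at 10 µg/mL, curves fitted across association and dissociation phases, with an unrelated mouse-derived antibody serving as internal reference control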
// boundary case: kon equal to 80000 M⁻¹ s⁻¹ maps to 0; strictly smaller maps to 1

>>> label("75110_10N21A (antibody, V domains shown, Tested as antibody purified from AlivaMab Mouse Kappa hybridoma (human V regions, kappa light chain, mouse Fc captured by anti-mouse Fc sensors)) VH: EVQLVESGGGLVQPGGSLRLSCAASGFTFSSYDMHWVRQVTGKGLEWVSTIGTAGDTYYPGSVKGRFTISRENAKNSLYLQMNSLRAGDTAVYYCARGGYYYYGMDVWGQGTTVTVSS VL: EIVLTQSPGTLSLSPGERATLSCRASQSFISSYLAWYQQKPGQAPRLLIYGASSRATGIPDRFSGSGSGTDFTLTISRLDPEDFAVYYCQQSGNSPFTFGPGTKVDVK")
1
>>> label("75110_06K03A (antibody, V domains shown, Tested as antibody purified from AlivaMab Mouse Kappa hybridoma (human V regions, kappa light chain, mouse Fc captured by anti-mouse Fc sensors)) VH: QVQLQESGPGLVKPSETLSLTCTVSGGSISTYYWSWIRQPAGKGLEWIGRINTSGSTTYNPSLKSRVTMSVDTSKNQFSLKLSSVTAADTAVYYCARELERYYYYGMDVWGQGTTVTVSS VL: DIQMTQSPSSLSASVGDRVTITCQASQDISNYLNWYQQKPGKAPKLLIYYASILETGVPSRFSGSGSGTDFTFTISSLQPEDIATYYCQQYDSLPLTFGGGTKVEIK")
1
>>> label("75110_11D03A (antibody, V domains shown, Tested as antibody purified from AlivaMab Mouse Kappa hybridoma (human V regions, kappa light chain, mouse Fc captured by anti-mouse Fc sensors)) VH: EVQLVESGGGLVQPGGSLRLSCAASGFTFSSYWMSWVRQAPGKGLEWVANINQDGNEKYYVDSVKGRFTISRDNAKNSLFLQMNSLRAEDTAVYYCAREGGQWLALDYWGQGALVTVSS VL: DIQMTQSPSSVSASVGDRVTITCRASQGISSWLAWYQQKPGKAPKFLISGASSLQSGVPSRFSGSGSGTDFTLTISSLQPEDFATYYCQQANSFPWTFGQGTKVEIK")
0
>>> label("75110_08H06A (antibody, V domains shown, Tested as antibody purified from AlivaMab Mouse Kappa hybridoma (human V regions, kappa light chain, mouse Fc captured by anti-mouse Fc sensors)) VH: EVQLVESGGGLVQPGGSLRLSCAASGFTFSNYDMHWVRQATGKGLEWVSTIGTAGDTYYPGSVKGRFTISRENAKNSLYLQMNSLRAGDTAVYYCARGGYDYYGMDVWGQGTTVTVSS VL: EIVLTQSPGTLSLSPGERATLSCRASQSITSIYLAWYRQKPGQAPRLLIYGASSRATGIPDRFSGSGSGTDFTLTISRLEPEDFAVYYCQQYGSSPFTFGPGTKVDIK")
1
>>> label("75110_09G15A (antibody, V domains shown, Tested as antibody purified from AlivaMab Mouse Kappa hybridoma (human V regions, kappa light chain, mouse Fc captured by anti-mouse Fc sensors)) VH: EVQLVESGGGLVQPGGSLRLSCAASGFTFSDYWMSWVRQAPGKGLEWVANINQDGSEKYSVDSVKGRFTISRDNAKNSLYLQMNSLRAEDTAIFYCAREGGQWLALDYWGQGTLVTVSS VL: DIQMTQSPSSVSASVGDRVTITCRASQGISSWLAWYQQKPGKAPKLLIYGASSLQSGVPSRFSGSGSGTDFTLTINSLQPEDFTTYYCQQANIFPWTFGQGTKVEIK")
0
>>> label("75110_12H17A (antibody, V domains shown, Tested as antibody purified from AlivaMab Mouse Kappa hybridoma (human V regions, kappa light chain, mouse Fc captured by anti-mouse Fc sensors)) VH: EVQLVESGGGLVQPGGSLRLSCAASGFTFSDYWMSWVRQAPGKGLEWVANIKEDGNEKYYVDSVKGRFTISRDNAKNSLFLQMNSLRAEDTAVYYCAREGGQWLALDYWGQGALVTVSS VL: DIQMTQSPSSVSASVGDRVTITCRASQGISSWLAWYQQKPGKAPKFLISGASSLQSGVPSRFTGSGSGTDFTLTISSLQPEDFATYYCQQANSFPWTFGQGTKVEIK")
0
>>> label("75110_08A13A (antibody, V domains shown, Tested as antibody purified from AlivaMab Mouse Kappa hybridoma (human V regions, kappa light chain, mouse Fc captured by anti-mouse Fc sensors)) VH: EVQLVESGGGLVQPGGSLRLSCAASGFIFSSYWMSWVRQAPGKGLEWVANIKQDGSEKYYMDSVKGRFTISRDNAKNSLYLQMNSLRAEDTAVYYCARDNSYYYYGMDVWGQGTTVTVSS VL: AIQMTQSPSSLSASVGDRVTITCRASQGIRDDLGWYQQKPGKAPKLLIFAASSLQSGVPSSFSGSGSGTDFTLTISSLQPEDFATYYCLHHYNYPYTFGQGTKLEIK")
0
>>> label("75110_12K21A (antibody, V domains shown, Tested as antibody purified from AlivaMab Mouse Kappa hybridoma (human V regions, kappa light chain, mouse Fc captured by anti-mouse Fc sensors)) VH: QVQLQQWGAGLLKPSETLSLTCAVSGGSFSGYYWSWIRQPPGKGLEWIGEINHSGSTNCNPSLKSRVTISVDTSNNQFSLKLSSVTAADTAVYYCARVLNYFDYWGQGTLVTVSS VL: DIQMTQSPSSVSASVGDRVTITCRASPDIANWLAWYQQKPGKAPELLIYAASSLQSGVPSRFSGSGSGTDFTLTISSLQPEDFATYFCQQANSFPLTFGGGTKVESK")
0
>>> label("75110_06G04A (antibody, V domains shown, Tested as antibody purified from AlivaMab Mouse Kappa hybridoma (human V regions, kappa light chain, mouse Fc captured by anti-mouse Fc sensors)) VH: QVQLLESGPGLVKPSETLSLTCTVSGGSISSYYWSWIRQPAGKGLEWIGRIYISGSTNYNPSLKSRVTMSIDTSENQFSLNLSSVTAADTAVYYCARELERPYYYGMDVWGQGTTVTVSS VL: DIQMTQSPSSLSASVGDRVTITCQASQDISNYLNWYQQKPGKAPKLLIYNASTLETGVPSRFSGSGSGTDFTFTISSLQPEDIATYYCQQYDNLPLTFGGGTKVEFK")
0
>>> label("75110_06D16A (antibody, V domains shown, Tested as antibody purified from AlivaMab Mouse Kappa hybridoma (human V regions, kappa light chain, mouse Fc captured by anti-mouse Fc sensors)) VH: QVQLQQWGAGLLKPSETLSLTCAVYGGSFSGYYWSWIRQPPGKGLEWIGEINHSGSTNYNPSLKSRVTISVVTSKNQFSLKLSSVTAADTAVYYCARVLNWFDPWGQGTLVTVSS VL: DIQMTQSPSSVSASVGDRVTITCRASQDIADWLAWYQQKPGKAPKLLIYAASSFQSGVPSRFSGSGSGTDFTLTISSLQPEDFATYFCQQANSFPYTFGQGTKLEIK")
0
